This collection of values is drawn from patent US8362000B2.

# targetOfAssay: purified wild type MGL (wt-MGLL 6H-11-313) (Homo sapiens)
# Sequence (Q99685 1-303): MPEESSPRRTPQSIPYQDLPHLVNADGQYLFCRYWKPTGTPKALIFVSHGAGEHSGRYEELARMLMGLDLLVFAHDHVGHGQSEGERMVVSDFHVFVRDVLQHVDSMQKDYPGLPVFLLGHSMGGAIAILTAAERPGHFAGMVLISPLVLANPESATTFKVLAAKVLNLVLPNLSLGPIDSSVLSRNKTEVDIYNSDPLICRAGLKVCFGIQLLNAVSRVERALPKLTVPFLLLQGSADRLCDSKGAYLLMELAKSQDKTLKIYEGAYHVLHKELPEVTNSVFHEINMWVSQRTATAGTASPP
endpointName: IC50

Solved cases below.
{"substanceSmiles": "O=C(c1nc2cc(F)ccc2[nH]1)N1CC(N2CCN(C(=O)c3nccs3)CC2)C1", "endpointName": "IC50", "result": "> 16.7 µM"}
{"substanceSmiles": "O=C(c1cccc(-c2ccccc2C(F)(F)F)c1)N1CC(N2CCN(C(=O)c3nccs3)CC2)C1", "endpointName": "IC50", "result": "< 0.005 µM"}
{"substanceSmiles": "O=C(c1nccs1)N1CCN(C2CN(C(=O)c3sc4ccc(-c5ccccc5)cc4c3F)C2)CC1", "endpointName": "IC50", "result": "< 0.005 µM"}

IC50 reported for this compound `Cc1nc(-c2cccc(C(F)(F)F)c2)sc1C(=O)N1CC(N2CCN(C(=O)c3cscn3)CC2)C1` : 0.102 µM

---

# targetOfAssay: MGL (Rattus norvegicus, UniProt Q8R431)
# Construct: one g rat brain was homogenized using a Polytron homogenizer; from tissue; host or cells: rat brain homogenate
# Sequence (Q8R431 1-303): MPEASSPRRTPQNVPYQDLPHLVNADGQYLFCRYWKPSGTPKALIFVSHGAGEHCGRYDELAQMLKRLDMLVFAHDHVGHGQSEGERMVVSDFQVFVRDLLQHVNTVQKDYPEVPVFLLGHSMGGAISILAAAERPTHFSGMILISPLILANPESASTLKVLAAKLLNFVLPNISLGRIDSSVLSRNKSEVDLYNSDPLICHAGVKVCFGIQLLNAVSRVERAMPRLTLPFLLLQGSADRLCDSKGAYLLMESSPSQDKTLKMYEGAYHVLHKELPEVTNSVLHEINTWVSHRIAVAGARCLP
# measurementProtocol: 2-AG accumulation assay in rat brain homogenate
# Type: biochemical
# conditionDescription: rat brain homogenate; compound 10 μM; 2-AG accumulation as percent of vehicle; read-out: Rat Brain 2AG % VehCntrl (%) @ 10 μM
endpointName: 2-AG accumulation, % of vehicle control at 10 µM
Quick note: unit goes after the number.

Solved cases below.
{"compound": "O=C(c1nccs1)N1CC(N2CCN(C(=O)c3ccc(-c4ccccc4)cc3)C(c3ccccc3)C2)C1 (centres unmarked)", "result": "215%"}
{"compound": "COc1cc(F)c(F)cc1-c1ccc(C(=O)N2CC(N3CCN(C(=O)c4nccs4)CC3)C2)cc1", "result": "769%"}
{"compound": "CS(=O)(=O)Nc1cccc(-c2ccc(C(=O)N3CC(N4CCN(C(=O)c5nccs5)CC4)C3)cc2)c1", "result": "851%"}
{"compound": "Cc1ccc(-c2nc(C)c(C(=O)N3CC(N4CCN(C(=O)c5nccs5)CC4)C3)s2)cc1", "result": "592%"}
{"compound": "O=C(c1ccc2c(Br)cccc2c1)N1CC(N2CCN(C(=O)c3nccs3)CC2)C1", "result": "814%"}

2-AG accumulation, % of vehicle control at 10 µM reported for this compound `O=C(c1ccc(-c2cc(Cl)cc(Cl)c2)cc1)N1CC(N2CCN(C(=O)c3nccs3)CC2)C1` : 969%

2-AG accumulation, % of vehicle control at 10 µM reported for this compound `O=C(c1ccccc1)N1CCN(C2CN(C(=O)c3ccc(-c4cccc(F)c4)cc3)C2)CC1` : 365%

2-AG accumulation, % of vehicle control at 10 µM reported for this compound O=C(c1ccccc1)N1CC(N2CCN(C(=O)c3ccc(-c4ccccc4)cc3)C(c3ccccc3)C2)C1 (centres unmarked) : 238%
